B1: library; a variant is named by its letters at N, in order (parent)
chain: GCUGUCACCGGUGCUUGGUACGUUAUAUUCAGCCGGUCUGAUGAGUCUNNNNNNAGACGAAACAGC

Variants of: B1
Assay: FACS-Seq fitted mean relative fluorescence mCherry/BFP with ligand (log10 relative fluorescence); HEK293T overexpressing SLC46A1; ligand concentration (+) FACS-Seq: 6 mM; higher = higher reporter protein expression
Conditions: with (6R,S)-folinic acid; ligand present: yes
// reported FACS-Seq fitted mean (log10) per item
Answer with a number only.

Worked cases, answers included:
{"columns": ["VARIANT_IDENTIFIER", "MEASURE_NAME", "OBSERVED_MEASUREMENT"],
 "data": [
  ["GUGUAA", "FACS-Seq fitted mean (log10)", 0.383],
  ["UUCAAG", "FACS-Seq fitted mean (log10)", 0.562],
  ["GACUAC", "FACS-Seq fitted mean (log10)", 0.191],
  ["UUAUGU", "FACS-Seq fitted mean (log10)", 0.413]
]}

Could you now consider this next variant?
[Q] For UAGCAG , what is its reported FACS-Seq fitted mean (log10)?
[A] 0.401
